Recorded Corn plant response rating values for a group of molecules are listed next.
tested on: corn; experiment: Test B pre/postemergence corn; format: in vivo, Zea mays; conditions: Preemergence, Rate 250 g/ha; scale of 0 to 10 where 0 is no effect and 10 is complete control
Write no unit; give the number alone.

Solved cases below.
>>> print(df.to_string())
                                   molecule  data_value
0  CC(C)N(C(=O)n1oc(=O)n(CCC2OCCO2)c1=O)c1ccc(F)cc1           5
1  CCc1cccc(CC)c1-n1c(=O)on(C(=O)N(c2ccc(F)cc2)C(C)C)c1=O           0
2  COc1cc(C)cc(C)c1-n1c(=O)on(C(=O)N(c2ccc(F)cc2)C(C)C)c1=O           0

Lab note: `Cc1ccccc1-n1c(=O)on(C(=O)N(c2ccc(Oc3ccccc3)cc2)C(C)C)c1=O` gave Corn plant response rating of 0

Per the records, this molecule ( CC(C)N(C(=O)n1oc(=O)n(C2CC3CCC2C3)c1=O)c1ccc(F)cc1 (centres unmarked) ) has Corn plant response rating equal to 0

Note to self: Corn plant response rating recorded for `CC(C)N(C(=O)n1oc(=O)n(CCCCF)c1=O)c1ccc(F)cc1` was 2

The recorded Corn plant response rating for entry `CCC(CC)n1c(=O)on(C(=O)N(c2ccc(F)cc2)C(C)C)c1=O` equals 2

Record summary for `CC(C)N(C(=O)n1oc(=O)n(N2CCOCC2)c1=O)c1ccc(F)cc1` : reported Corn plant response rating = 0

---

Tested on: surinam grass
Test: Test B pre/postemergence surinam grass
Assay type: in vivo, Brachiaria decumbens
Settings: Rate 250 g/ha; Postemergence
Procedure: […] At the same time, these crop and weed species were also treated with postemergence applications of test chemicals formulated in the same manner. […] Treated plants and controls were maintained in a greenhouse for twelve to sixteen days, after which all species were compared to controls and visually evaluated. […]
Assay metric: Plant response rating (0 to 10; 0 is no effect, 10 is complete control), B. signalgrass
Write the value as a bare number.

Illustrative cases are given below, each with its answer.
>>> df
                    structure_smiles_string  subject_of_test  data_value
0  CC(C)N(C(=O)n1oc(=O)n(CCC2OCCO2)c1=O)c1ccc(F)cc1    surinam grass           5
1  COc1cc(C)cc(C)c1-n1c(=O)on(C(=O)N(c2ccc(F)cc2)C(C)C)c1=O    surinam grass           0
2  CCCCCCCCCCCCCCCCCCCn1c(=O)on(C(=O)N(c2ccc(F)cc2)C(C)C)c1=O    surinam grass           0

Now for a further compound.
Query `Cc1nc(C)c(Cn2c(=O)on(C(=O)N(c3ccc(F)cc3F)C(C)C)c2=O)s1` yields Plant response rating (0 to 10; 0 is no effect, 10 is complete control), B. signalgrass of 0

---

tested on: sugar beet; assay: Test B pre/postemergence sugar beet; assay type: in vivo, Beta vulgaris; settings: Preemergence, Rate 62 g/ha; scale of 0 to 10 where 0 is no effect and 10 is complete control
Assay metric: Sugarbeets plant response rating
The reply should be a number, written without any unit.

Field: example entries. Status: answers known.
>>> print(df.to_string())
                    structure_smiles_string  data_value
0  CC(C)N(C(=O)n1oc(=O)n(COCc2ccccc2)c1=O)c1ccc(F)cc1           0
1  COc1cc(C)cc(C)c1-n1c(=O)on(C(=O)N(c2ccc(F)cc2)C(C)C)c1=O           0
2  CC(C)N(C(=O)n1oc(=O)n(CCCCF)c1=O)c1ccc(F)cc1           2
3  Cc1nc(C)c(Cn2c(=O)on(C(=O)N(c3ccc(F)cc3F)C(C)C)c2=O)s1           0
4  CC(C)N(C(=O)n1oc(=O)n(Cc2ccccn2)c1=O)c1ccc(F)cc1           0

The value of Sugarbeets plant response rating measured for the compound `Cc1cccc(C(C)(C)C)c1-n1c(=O)on(C(=O)N(c2ccccc2)C(C)C)c1=O` turned out to be 0

Per the records, this compound ( `Cc1nc(C)c(-n2c(=O)on(C(=O)N(c3ccc(F)cc3)C(C)C)c2=O)s1` ) has Sugarbeets plant response rating equal to 0

// field: Sugarbeets plant response rating; key: `CCN(C(=O)n1oc(=O)n(C(C)C)c1=O)C1CCCCC1` ; value = 0

---

Some molecules, each annotated with its measured S. Flatsedge plant response rating.
tested on: smallflower flatsedge; experiment: Test B flood test smallflower flatsedge; format: in vivo, Cyperus difformis; conditions: Rate 500 g/ha; Pre-emergence; flood test species; scale 0 to 10 (0 no effect, 10 complete control)
Quick one: just the number, no unit, thanks!

>>> print(df.to_string())
                                   molecule  data_value
0    CCN(C(=O)n1oc(=O)n(C(C)C)c1=O)C1CCCCC1           0
1  CCOC(=O)C(C)N(C(=O)n1oc(=O)n(-c2ccccc2C)c1=O)c1ccc(F)cc1 (centres unmarked)           0
2  CCC(CC)n1c(=O)on(C(=O)N(c2ccc(F)cc2)C(C)C)c1=O           8

Sample `Cc1ccccc1-n1c(=O)on(C(=O)N(c2ccc(Oc3ccccc3)cc2)C(C)C)c1=O` , system: smallflower flatsedge. Its S. Flatsedge plant response rating is 0

---

test system: surinam grass; test: Test B pre/postemergence surinam grass; format: in vivo, Brachiaria decumbens; conditions: Preemergence, Rate 250 g/ha; scale 0 (no effect) to 10 (complete control)
Below, each entry is listed with its recorded B. signalgrass plant response rating.
The reply should be a number, written without any unit.

>>> df
                                   compound  subject_of_test                          assay_metric  data_value
0  CC(C)N(C(=O)n1oc(=O)n(C(CF)CCl)c1=O)c1ccc(F)cc1 (racemic) [Compound 707]    surinam grass  B. signalgrass plant response rating           9
1  CC(C)N(C(=O)n1oc(=O)n(CC2=NOCC2)c1=O)c1ccccc1 [Compound 706]    surinam grass  B. signalgrass plant response rating           8
2  CC(C)N(C(=O)n1oc(=O)n(CCCCCl)c1=O)c1ccc(Cl)cc1 [Compound 791]    surinam grass  B. signalgrass plant response rating           0

Let's switch to this compound now.
Readout B. signalgrass plant response rating for CC(C)N(C(=O)n1oc(=O)n(C(C)C2=NOCC2)c1=O)c1ccccc1 (racemic) [Compound 729] , test system surinam grass, was 10

---

tested on: bedstraw; assay: Test B pre/postemergence bedstraw; format: in vivo, Galium aparine; conditions: Preemergence, Rate 500 g/ha; scale of 0 to 10 where 0 is no effect and 10 is complete control
Assay metric: Bedstraw plant response rating
# answer = number (no unit)

Some solved entries appear below for comparison.
                                   molecule  data_value
0  CC(C)N(C(=O)n1oc(=O)n(CC2CCOC2)c1=O)c1ccc(F)cc1 (stereo not shown)          10
1  CCOC(=O)C=C(Cn1c(=O)on(C(=O)N(c2ccc(Cl)cc2)C(C)C)c1=O)OCC           5
2  C=CCCCn1c(=O)on(C(=O)N(c2ccccc2)C(C)C)c1=O           0

// Bedstraw plant response rating value for `CC(C)N(C(=O)n1oc(=O)n(Cc2nnsc2Cl)c1=O)c1ccc(F)cc1F` : 0

---

System: bedstraw
Test: Test B pre/postemergence bedstraw
Assay type: in vivo, Galium aparine
Settings: Preemergence, Rate 250 g/ha; scale 0 to 10, 0 is no effect, 10 is complete control
Description: […] At the same time, these crop and weed species were also treated with postemergence applications of test chemicals formulated in the same manner. […] Treated plants and controls were maintained in a greenhouse for twelve to sixteen days, after which all species were compared to controls and visually evaluated. […]
Measured Bedstraw plant response rating accompanies every entry in the list below.
// response body must contain only the number

// below: answered compounds
>>> print(df.to_string())
                                   compound  data_value
0  CCc1nc(C)c(C(C)n2c(=O)on(C(=O)N(c3ccc(F)cc3)C(C)C)c2=O)s1 (stereo not shown) [Compound 449]           0
1  CC(C)N(C(=O)n1oc(=O)n(CC2CC2)c1=O)c1ccc(F)cc1F [Compound 509]          10
2  CC(C)N(C(=O)n1oc(=O)n(Cc2ccccc2Cl)c1=O)C1=CCCCC1 [Compound 145]           0
3  COCn1c(=O)on(C(=O)N(c2ccc(F)cc2F)C(C)C)c1=O [Compound 503]           6
4  CC(C)N(C(=O)n1oc(=O)n(CCCNC(=O)CCl)c1=O)c1ccccc1 [Compound 493]           0
5  CCN(CC)C(=O)Cn1c(=O)on(C(=O)N(c2ccc(F)cc2F)C(C)C)c1=O [Compound 512]           0

// next item, Bedstraw plant response rating requested
According to the records, this compound CC(C)N(C(=O)n1oc(=O)n(CC2=NCCCO2)c1=O)c1ccccc1 [Compound 494] displays Bedstraw plant response rating of 0
